System: Artemia franciscana
Experiment: Brine shrimp assay
Details: in vivo
endpoint: cytotoxic activity against Artemia franciscana in the brine shrimp assay

Answered examples (5):
INSERT INTO results (compound, targetentity, observed) VALUES
  ('C=CC(C)(CC/C=C(\C)CCC=C(C)C)c1ccc(OCc2ccccc2)c(O)c1 (stereo not shown) [Compound 2, 1-O-benzyl 4-NC]', 'Artemia franciscana', 'weak cytotoxic activity'),
  ('C=CC(C)(CC/C=C(\C)CCC=C(C)C)c1ccc(OC(=O)c2ccccc2)c(OC(=O)c2ccccc2)c1 (stereo not shown) [Compound 6, O,O-dibenzoyl 4-NC]', 'Artemia franciscana', 'moderately toxic'),
  ('C=CC(C)(CC/C=C(\C)CCC=C(C)C)c1ccc(O)c(OCc2ccccc2)c1 (stereo not shown) [Compound 3, 2O-monobenzyl derivative of 4-NC]', 'Artemia franciscana', 'weak cytotoxic activity'),
  ('C=CC(C)(CC/C=C(\C)CCC=C(C)C)c1ccc(OC(C)=O)c(OC(C)=O)c1 (stereo not shown) [Compound 7, O,O-diacetyl-4-nerolidylcatechol]', 'Artemia franciscana', 'moderately toxic'),
  ('C=CC(C)(CC/C=C(\C)CCC=C(C)C)c1ccc(O)c(OC)c1 (stereo not shown) [Compound 5, 2O-monomethyl 4-NC derivative]', 'Artemia franciscana', 'weak cytotoxic activity');

input: So what does the record say about cytotoxic activity against Artemia franciscana in the brine shrimp assay for C=CC(C)(CC/C=C(\C)CCC=C(C)C)c1ccc(OC)c(O)c1 (stereo not shown) [Compound 4, 1O-monomethyl derivative of 4-NC] ?
output: weak cytotoxic activity
